# ASSAY_INFO: Mouse liver microsome stability
# Type: in vitro ADME
# CONDITIONS: mouse liver microsomes half-life; read-out: MLM t½
QUANTITY_MEASURED: half-life at 1 µM (min)
Provide only the numeric value, understood in min.

Would you please look over these solved cases?
Cn1cc(-c2cc3c(Nc4ccc(S(C)(=O)=O)cc4)ncnc3s2)cn1 [Compound 8]
73.3
Cc1ncccc1-c1cc2ncnc(Nc3ccc(C4CC4)cc3)c2s1 [Compound 38]
1.94

Qu. Please give the measured half-life at 1 µM for this compound: CS(=O)(=O)c1ccc(Nc2ncnc3cc(-c4cccnc4Cl)sc23)cc1 [Compound 37]
Ans. 70.8

Qu. What do you get for Cc1ncccc1-c1cc2ncnc(Nc3ccc(N4CCCC4=O)cc3)c2s1 [Compound 42] ?
Ans. 5.39

Qu. What do you get for Cc1ncccc1-c1cc2c(Nc3ccc(S(C)(=O)=O)cc3)ncnc2s1 [Compound 17] ?
Ans. 35.5

Qu. What do you get for Cc1ccncc1-c1cc2c(Nc3ccc(S(C)(=O)=O)cc3)ncnc2s1 [Compound 14] ?
Ans. 8.2

Qu. What do you get for Cc1cnccc1-c1cc2c(Nc3ccc(S(C)(=O)=O)cc3)ncnc2s1 [Compound 10] ?
Ans. 9.23

* * *

# TARGET_OR_TEST_SYSTEM: PI5P4Kα (Homo sapiens)
# Sequence (P48426 whole entry): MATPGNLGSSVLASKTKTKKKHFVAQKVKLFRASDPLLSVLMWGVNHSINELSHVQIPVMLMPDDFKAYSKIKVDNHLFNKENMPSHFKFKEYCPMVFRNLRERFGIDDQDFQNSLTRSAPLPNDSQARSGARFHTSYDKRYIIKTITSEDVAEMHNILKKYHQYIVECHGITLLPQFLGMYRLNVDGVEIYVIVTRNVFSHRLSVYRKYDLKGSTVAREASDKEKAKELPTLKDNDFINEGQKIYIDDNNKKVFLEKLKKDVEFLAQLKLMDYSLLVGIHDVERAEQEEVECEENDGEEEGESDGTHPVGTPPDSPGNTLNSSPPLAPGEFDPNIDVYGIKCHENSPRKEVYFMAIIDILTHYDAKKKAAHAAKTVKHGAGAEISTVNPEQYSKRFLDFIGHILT
# CONDITIONS: Table S1, two decimals; asterisk not explained
Values of ADP-Glo pIC50 PI5P4Kα strictly less than 6 map to True, and values of at least 6 map to False.

Some solved cases for reference:
COc1cnccc1-c1cc2c(Nc3ccc(S(C)(=O)=O)cc3)ncnc2s1
True
CSc1ccc(Nc2ncnc3sc(-c4cnoc4)cc23)cc1
False
Cc1ncccc1-c1cc2c(Nc3ccc(C4CC4)cc3)ncnc2s1
False

Qu. Take the compound CCc1ccc(Nc2ncnc3sc(-c4cccnc4C)cc23)cc1 and say whether its ADP-Glo pIC50 PI5P4Kα is less than 6.
Ans. False

Qu. What do you get for Cc1ccc(Nc2ncnc3sc(-c4cccnc4C)cc23)c(C)c1 ?
Ans. True

Qu. What do you get for Cc1ncccc1-c1cc2ncnc(Nc3ccc4ncoc4c3)c2s1 ?
Ans. True

Qu. What do you get for CS(=O)(=O)c1ccc(Nc2ncnc3sc(-c4ccnc(Cl)c4)cc23)cc1 ?
Ans. True

* * *

Listed next: entries and their corresponding pIC50.
# TARGET_OR_TEST_SYSTEM: PI5P4Kγ+ (Homo sapiens, UniProt Q8TBX8, D138G/D197E/E133P/E135D/E153T/E196G/G139A/N195G/S132L/S134N)
# ASSAY_INFO: biochemical
# CONDITIONS: PI5P4Kγ+ pIC50, ADP-Glo; footnote a: inconsistent replicates, value shown is upper limit
# reply with the number alone; pIC50 is -log10 of concentration in mol/L

Would you please look over these solved cases?
CS(=O)(=O)c1ccc(Nc2ncnc3sc(-c4cn[nH]c4)cc23)cc1 [Compound 7]
7.80
CS(=O)(=O)c1ccc(Nc2ncnc3sc(-c4cccnc4F)cc23)cc1 [Compound 16]
7.50
Cc1ccc(Nc2ncnc3sc(-c4cccnc4C)cc23)cc1 [Compound 22]
5.80
Cc1csc2ncnc(Nc3ccc(S(C)(=O)=O)cc3)c12 [Compound 31]
7.30

Qu. Please give the measured pIC50 for this molecule: CS(=O)(=O)c1ccc(Nc2ncnc3sc(-c4ccncc4F)cc23)cc1 [Compound 12]
Ans. 7.00

* * *

# TARGET_OR_TEST_SYSTEM: PI5P4Kγ-WT (Homo sapiens)
# ASSAY_INFO: InCELL Pulse cellular target engagement (thermal stabilisation) assay
# CONDITIONS: Hek293 cells stably expressing ePL-tagged PI5P4Kγ
Values of InCELL Pulse pIC50 PI5P4Kγ-WT strictly less than 7 map to Yes, and values of at least 7 map to No.

Some solved cases for reference:
Cn1cc(-c2cc3c(Nc4ccc(S(C)(=O)=O)cc4)ncnc3s2)cn1
Yes
CSc1ccc(Nc2ncnc3cc(-c4cccnc4Cl)sc23)cc1
No
Cc1ncccc1-c1cc2c(Nc3ccc(S(C)(=O)=O)cc3)ncnc2s1
No
Cc1cnccc1-c1cc2c(Nc3ccc(S(C)(=O)=O)cc3)ncnc2s1
No

Please examine the following record next.
Qu. Take the compound CS(=O)(=O)c1ccc(Nc2ncnc3cc(-c4cccnc4Cl)sc23)cc1 and say whether its InCELL Pulse pIC50 PI5P4Kγ-WT is less than 7.
Ans. No

* * *

Listed next: entries and their corresponding pIC50.
# TARGET_OR_TEST_SYSTEM: PI5P4Kγ+ (Homo sapiens, UniProt Q8TBX8, D138G/D197E/E133P/E135D/E153T/E196G/G139A/N195G/S132L/S134N)
# ASSAY_INFO: biochemical
# CONDITIONS: ADP-Glo pIC50 PI5P4Kγ+, Table S1, two decimals; asterisk not explained
# reply with the number alone; pIC50 is -log10 of concentration in mol/L

Would you please look over these solved cases?
Cc1cc2c(Nc3ccc(N4CC(C)(C)CC4=O)cc3)ncnc2s1
6.88
Cc1cc(Cl)ccc1Nc1ncnc2sc(-c3cccnc3Cl)cc12
5.10
COc1cc(Nc2ncnc3sc(C)cc23)ccc1N1CCCC1=O
6.67
COc1ncccc1-c1cc2c(Nc3ccc(S(C)(=O)=O)cc3)ncnc2s1
7.54
CS(=O)(=O)c1ccc(Nc2ncnc3sc(-c4cccnc4)cc23)cc1
7.46
COc1cnccc1-c1cc2c(Nc3ccc(Cl)cc3)ncnc2s1
7.20

Qu. Please give the measured pIC50 for this compound: Cc1ccc(Nc2ncnc3sc(-c4cccnc4Cl)cc23)cc1
Ans. 6.37

Qu. What do you get for Cc1ccc(Nc2ncnc3sc(-c4cccnc4C)cc23)cc1C ?
Ans. 5.87

* * *

# TARGET_OR_TEST_SYSTEM: PI5P4Kγ+ (Homo sapiens, UniProt Q8TBX8, D138G/D197E/E133P/E135D/E153T/E196G/G139A/N195G/S132L/S134N)
# Sequence (Q8TBX8 with tags, fused parts or gaps INS131LPN/S132D/E133S/S134Q/E135A/G136R/D138G/G139A/E153T/N195G/E196G/D197E): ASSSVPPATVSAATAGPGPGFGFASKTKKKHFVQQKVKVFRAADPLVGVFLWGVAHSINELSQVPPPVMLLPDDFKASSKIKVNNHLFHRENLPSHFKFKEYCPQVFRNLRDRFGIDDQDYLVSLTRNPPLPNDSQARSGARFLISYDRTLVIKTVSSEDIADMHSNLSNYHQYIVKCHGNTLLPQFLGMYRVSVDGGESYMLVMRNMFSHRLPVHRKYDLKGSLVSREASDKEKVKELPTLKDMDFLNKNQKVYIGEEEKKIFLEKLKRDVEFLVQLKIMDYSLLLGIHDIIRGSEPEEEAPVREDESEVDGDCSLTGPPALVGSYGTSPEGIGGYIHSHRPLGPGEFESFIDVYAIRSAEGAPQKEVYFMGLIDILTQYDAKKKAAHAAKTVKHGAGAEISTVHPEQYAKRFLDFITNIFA
# ASSAY_INFO: biochemical
# CONDITIONS: ADP-Glo pIC50 PI5P4Kγ+, Table S1, two decimals; asterisk not explained
QUANTITY_MEASURED: log10 of IC50 (log10 of the value in nM)
Values reflect log10 of reported IC50 (nM).

Would you please look over these solved cases?
CSc1ccc(Nc2ncnc3sc(-c4cncnc4)cc23)cc1
1.47
Cc1ccncc1-c1cc2c(Nc3ccc(S(C)(=O)=O)cc3)ncnc2s1
1.09
CS(=O)(=O)c1ccc(Nc2ncnc3sc(-c4ccnc(Cl)c4)cc23)cc1
1.81
COc1ccc(Nc2ncnc3sc(-c4ccncc4C)cc23)cc1
2.82
CS(=O)(=O)c1ccc(Nc2ncnc3cc(-c4cccnc4Cl)sc23)cc1
1.07
CC(=O)NCc1cc2c(Nc3ccc(S(=O)(=O)C4CCCC4)cc3)ncnc2s1
1.10
Cc1ccc(Nc2ncnc3sc(-c4cccnc4Cl)cc23)cc1C
3.93
COc1cnccc1-c1cc2c(Nc3ccc(C)cc3C)ncnc2s1
3.87
CCc1ccc(Nc2ncnc3sc(-c4cccnc4Cl)cc23)cc1
2.18
CS(=O)(=O)c1ccc(Nc2ncnc3sc(-c4ccc(F)cc4F)cc23)cc1
1.93

Qu. Please give the measured log10 of IC50 for this compound: Cc1ccc(Nc2ncnc3sc(-c4cccnc4Cl)cc23)c(C)c1
Ans. 3.92

Qu. What do you get for COc1ccc(Nc2ncnc3sc(-c4cccnc4C)cc23)cc1 ?
Ans. 3.28

Qu. What do you get for Cc1cnccc1-c1cc2c(Nc3ccc(S(C)(=O)=O)cc3)ncnc2s1 ?
Ans. 1.11

Qu. What do you get for Clc1ncccc1-c1cc2c(Nc3ccc(C4CC4)cc3)ncnc2s1 ?
Ans. 1.83

Qu. What do you get for Cn1cc(-c2cc3c(Nc4ccc(S(C)(=O)=O)cc4)ncnc3s2)cn1 ?
Ans. 1.56

Qu. What do you get for Cc1ncccc1-c1cc2c(Nc3ccc(C4CC4)cc3)ncnc2s1 ?
Ans. 2.04

Qu. What do you get for CS(=O)(=O)c1ccc(Nc2ncnc3sc(-c4cn[nH]c4)cc23)cc1 ?
Ans. 1.19

Qu. What do you get for Cc1cccc(Nc2ncnc3sc(-c4cccnc4Cl)cc23)c1 ?
Ans. 3.37
